B1: tRNA (parent)
chain: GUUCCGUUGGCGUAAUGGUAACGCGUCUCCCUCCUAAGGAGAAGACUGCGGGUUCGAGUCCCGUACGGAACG

Variants of: B1
test_description: yeast fitness relative to wild type (ratio to wild type); higher = fitter; tRNA-Arg(CCU), competitive growth, 37 C, YPD
This sample holds only a part of the variants without activity.
Measured yeast fitness determines class: bucket 1 (below 0.6), bucket 2 (0.6 to below 0.8), bucket 3 (0.8 or more)

G9C U19C C31A; bucket 1

Query variant follows.
Q: # bin label for U2A A20C C33G C46U A70G
A: bucket 1
